Format: in vivo, human
Conditions: human, plasma, po, 10 mg
resultType: AUC(0-inf)

According to the records, this compound `COc1ccc(-n2nc(C(N)=O)c3c2C(=O)N(c2ccc(N4CCCCC4=O)cc2)CC3)cc1` displays AUC(0-inf) of 4310 ng·h/mL

---

Assay type: in vivo, human
Conditions: human, plasma, po, 10 mg
resultType: AUC(0-inf)

Record COc1ccc(-n2nc(C(N)=O)c3c2C(=O)N(c2ccc(N4CCCCC4=O)cc2)CC3)cc1 [apixaban] . Reported AUC(0-inf): 5390 ng·h/mL

---

Type: in vivo, human
Conditions: human, plasma, po, 10 mg
resultType: Cmax (ng/mL)
Entry rule: numbers only, all in ng/mL.

# compound COc1ccc(-n2nc(C(N)=O)c3c2C(=O)N(c2ccc(N4CCCCC4=O)cc2)CC3)cc1 [apixaban] ; its Cmax = 353

---

Format: in vivo, human
Conditions: human, plasma, po, 10 mg
resultType: AUC(0-t) (ng·h/mL)
A number alone suffices; assume ng·h/mL.

Entry under test: `COc1ccc(-n2nc(C(N)=O)c3c2C(=O)N(c2ccc(N4CCCCC4=O)cc2)CC3)cc1` . Its AUC(0-t) was 4990

---

Format: in vivo, human
Conditions: human, plasma, oral, 10 mg
resultType: Tmax (h)
Express it in h; write the number only.

The reported value for `COc1ccc(-n2nc(C(N)=O)c3c2C(=O)N(c2ccc(N4CCCCC4=O)cc2)CC3)cc1` in terms of Tmax is 1.4
